Test system: Saccharomyces cerevisiae
Assay: protein stability index of tFT-peptide fusion in wild type (PSI (0-1 scale)); higher = more stable (slower turnover)
Settings: genetic background: wild type
Tag: MET if measured protein stability index is not below 0.3, NOT MET if it is.

Kindly determine if protein stability index recorded for PDQRNHLIKLLN is above or exactly 0.3.
NOT MET

Answer whether protein stability index of CLVQLPILLFFR is greater than or equal to 0.3.
NOT MET

For this sequence, is measured protein stability index 0.3 or higher? RSFRVLLPLYFR
NOT MET

Given the entry RVTRLDARYFRI , answer whether its protein stability index meets or surpasses 0.3.
MET

Quick check, protein stability index >= 0.3? AITLPGCPLLLR
MET

###

Tested on: Saccharomyces cerevisiae
Assay: protein stability index of tFT-peptide fusion (C-terminal peptide) (PSI (0-1 scale)); higher = more stable (slower turnover)
Conditions: genetic background: das1 deletion; temperature: 37 C
Give measured protein stability index for each item. Keep answers brief.
Give bare numbers.

Each sequence below has a reported value. Please supply its protein stability index.
1. KMIVWKESIKRE
2. IVCYFFAFSFMW
3. FGLVAYPLWYIS
4. ARKWVAVTVTLW

0.723
0.462
0.777
0.352

# batch: return protein stability index for each of the 4 sequences below
1. VLFVRGHTLWLM
2. YFNGLLPLVLVF
3. CLRVSFFFWLFA
4. LFLYDFIALRCS

1: 0.702; 2: 0.0623; 3: 0.553; 4: 0.566

For each of the sequences below, note its protein stability index.
1. CTESVYIIRFML
2. FSPSHMLRIFCY
3. VAALFPPLRFLN
4. AWWMALAVPIVA
5. HVLGSIYWAIFV
6. PVLSLPPLSSPP
7. VCFAWWGARCVA
8. CFLLSYRWVFLC

1. 0.662
2. 0.443
3. 0.734
4. 0.0676
5. 0.563
6. 0.724
7. 0.648
8. 0.238

Give protein stability index for each of the items listed below.
1. LFVFVLAGFCCV
2. YLDRFIFIYNIF
3. FFCYFFEFFICG

0.485
0.707
0.468

###

Test system: Saccharomyces cerevisiae
Experiment: protein stability index of tFT-peptide fusion (C-terminal peptide) (PSI (0-1 scale)); higher = more stable (slower turnover)
Conditions: genetic background: cdc34-1; temperature: 37 C
I'd appreciate it if you could label each record using protein stability index and these ranges: bin 0 (below 0.3), bin 1 (0.3 to below 0.5), bin 2 (0.5 or more)

Place this sequence in its band: EMPRLSKAIRVT
bin 2

State the band of LKFSLLLPVQVI
bin 1

###

Test system: Saccharomyces cerevisiae
Assay: protein stability index of tFT-peptide fusion (C-terminal peptide) (PSI (0-1 scale)); higher = more stable (slower turnover)
Conditions: genetic background: wild type; temperature: 30 C
Measured parameter: protein stability index
Give bare numbers.

{"columns": ["Sequence string", "Value measured"],
 "data": [
  ["RSPPHSNLAHCI", 0.684],
  ["LILFLTTSSPLV", 0.608]
]}

Below are some sequences; for each one, tell me its protein stability index.
1. PPLLLLRRRSPS
2. GVEGLGAFVTVQ
3. VYRRGESRTHGD

1: 0.699; 2: 0.702; 3: 0.682

Quick batch: protein stability index for everything below.
1. LGSYSALKIGWG
2. SVSPRPSPPAVP
3. FRHFPLLLSFVR
4. SVVVVAKAKAGR
5. FCIRLFLLPLCP
6. RAWHFWVCGWRV

[0.592, 0.708, 0.418, 0.635, 0.587, 0.607]

Please report protein stability index for every entry that follows.
1. FYGVRFLVCVSA
2. PPPSHSLPSLPI
3. PRVTPRFSKHAL
4. SGLPLVILFLCL
5. TPPPPLSCPPPS
6. SGGRTSRREGGR

1: 0.157; 2: 0.626; 3: 0.724; 4: 0.476; 5: 0.487; 6: 0.643

Provide protein stability index for all items below, preserving their order.
1. SASPLRPPFLLL
2. NKRKSKKRNEIE
3. HLRIAHTPDSPR
4. EKKIDPTVKEGK

[0.635, 0.67, 0.703, 0.663]

Batch: protein stability index for all items listed.
1. RRLYERNKNNKQ
2. WTCMNRRMREED
3. VFLNRGSHQQET

1. 0.435
2. 0.739
3. 0.691

Item under review: LSTPPRLPQPSP . Reported protein stability index?
0.703

###

System: Saccharomyces cerevisiae
Assay: protein stability index of tFT-peptide fusion (C-terminal peptide) (PSI (0-1 scale)); higher = more stable (slower turnover)
Conditions: genetic background: wild type; temperature: 30 C
Give measured protein stability index for each item. Keep answers brief.
Numbers only.

# count of solved cases: 5
{"columns": ["Sequence string", "Value measured"],
 "data": [
  ["SLRLPPPRRLPV", 0.658],
  ["PVSSFQHSLPWL", 0.708],
  ["LARRASCFWVRC", 0.452],
  ["PPPPGLPSSPPP", 0.625],
  ["FFSFYPVYPLSA", 0.527]
]}

I need protein stability index for every entry listed below, if you could help.
1. RGVGSGGLEGIG
2. DDESLVGRWRKV
3. GKLKVKIYESSK
4. IFPRPHVDIPLL
5. PAACPTRTCLYP
6. IPSVRATDGKIM
7. GGGVGMLRRSGG
8. GSTLWGMAWGAR

0.541
0.365
0.658
0.922
0.719
0.649
0.689
0.694

Count: 2. Required value per item: protein stability index.
1. PPSRLSPPPPPS
2. PPPPHSFTPSGH

1. 0.71
2. 0.673

Tell me the measured protein stability index of LSALPSRPCSKR , please.
0.689

###

Assign protein stability index to each entry below.
System: Saccharomyces cerevisiae
Assay: protein stability index of tFT-peptide fusion (C-terminal peptide) (PSI (0-1 scale)); higher = more stable (slower turnover)
Details: genetic background: wild type; temperature: 30 C
Answers are plain numbers.

The examples below pair each entry with its known result.
{"columns": ["Sequence string", "Value measured"],
 "data": [
  ["GLHVPLTGFCFC", 0.63],
  ["VGVGGEQISIEY", 0.723],
  ["CAAIHFLLPTYP", 0.69],
  ["ADDDTGYPPTRT", 0.669]
]}

Please give protein stability index, item by item, for the list that follows.
1. PVPPPPCPPLPP
2. GEDRLSPVGWDR
3. KCKLLKIMKKKE
4. AESSLSLFPPPP
5. LPRERSFRLYKA

0.683
0.702
0.636
0.756
0.739

Please supply protein stability index for each of the following items, keeping them in order.
1. FRSTKELLQLGR
2. GVVRWGRVVGCF
3. LFWWCMVFISLI
4. YSVERCLFVSVA
5. GTRAVSKLNPDA
6. PPRPLPPPPPPT
7. PPSHGRSSQSPR

[0.664, 0.631, 0.3, 0.414, 0.701, 0.716, 0.731]

Hey, quick one: what's protein stability index for each of these?
1. LTQPPPAPRVFF
2. RRLSVPFSPSAL
3. FGLSVSSMSWNL
4. PLTGSLIPLFPL
5. NIHRKLIKNERV

[0.699, 0.733, 0.714, 0.732, 0.694]

###

System: Saccharomyces cerevisiae
Test: protein stability index of tFT-peptide fusion (C-terminal peptide) (PSI (0-1 scale)); higher = more stable (slower turnover)
Conditions: genetic background: wild type; temperature: 30 C
Measured parameter: protein stability index
One number for each entry.

Reference set (5 entries):
{"columns": ["Sequence string", "Measured parameter", "Value measured"],
 "data": [
  ["LCWLVHFFLWVS", "protein stability index", 0.238],
  ["RLVMAVRVAAGG", "protein stability index", 0.349],
  ["KLSLRYLLVSLI", "protein stability index", 0.115],
  ["VFYWVGVLCGWG", "protein stability index", 0.29],
  ["LFFWFMYLRRLI", "protein stability index", 0.151]
]}

For every record below, what is its protein stability index?
1. ARKWVAVTVTLW
2. LSLVIFIFLYCR
3. FERKVHSRWLFF
4. VSSSFSVLVLLF
5. LVWDLFRCFSML
6. MALAVRVVPCGA
7. GPNWCSVCQGVG

0.189
0.169
0.15
0.339
0.228
0.287
0.426

###

Tested on: Saccharomyces cerevisiae
Assay: protein stability index of tFT-peptide fusion (C-terminal peptide) (PSI (0-1 scale)); higher = more stable (slower turnover)
Details: genetic background: wild type; temperature: 30 C
Short version: protein stability index at least 0.7 is 1 (yes), less is 0 (no).

Look over these answered cases.
{"columns": ["Sequence string", "Assigned category"],
 "data": [
  ["VKFVYRQRIALV [YLL037W C-terminal 12 aa]", "0 (no)"],
  ["ILFSFFCNLVAK [VTC4 C-terminal 12 aa]", "0 (no)"],
  ["FSTEYLGLICTY [YLR232W C-terminal 12 aa]", "0 (no)"]
]}

Could you tell me if the measured protein stability index of EQLEEEFVRQEH [OSW7 C-terminal 12 aa] reaches 0.7 or more?
1 (yes)

Evaluate NLLLSGSLYQKN [BUD28 C-terminal 12 aa] : protein stability index at minimum 0.7?
0 (no)

Answer whether protein stability index of LTTSVLCCVVFT [CNE1 C-terminal 12 aa] is greater than or equal to 0.7.
0 (no)

Test whether the sequence NVWDWNNWTSAT [GAL11 C-terminal 12 aa] records protein stability index of 0.7 or higher.
1 (yes)

Values were extracted from the supplement of paper PMC10724198.
